system.name: T1, soluble human tissue factor (extracellular domain of hTF with C-terminal RGS-His6 tag) (human, UniProt P13726 33-251)
T1 construct: leader left out (range computed from the stated lengths); Expressed in HEK293, purified on Ni-agarose and by gel filtration; also called soluble hTF; recombinant soluble hTF
experiment.summary: BIAcore X, soluble hTF immobilized on CM5 chip, mAb injected
Experimental: Binding properties of anti-hTF mAbs were evaluated using BIAcore X. Briefly, a CM5 BIAcore biosensor chip was docked into the instrument and activated with 55 μl of 1:1 NHS/EDC at room temperature. […] Following completion of the injection phase, dissociation was monitored in BIAcore running buffer at the same flow rate for 360 seconds. […] Individual sensorgrams were analyzed using BIAsimulation software.
Quick list: koff per entry.
Give the value in s⁻¹ but do not write s⁻¹ after it.

Solved cases below.
monoclonal anti-TF antibody TF278 (hybridoma cell line TF278, ATCC PTA-5676) (antibody, IgG1, V domains shown) VH: EVQLQQSGAELMKPGASVKISCKATGYTFSSYWIEWVKQRPGHGLEWIGEILPGSASTKYNEKFKGKATFTADTSSNTAYMQLSSLTSEDSAVYYCARDYYYGSSYGFAYWGQGTLVTVSS VL: QAVVTQESALTTSPGETVTLTCRSSTGAVTTSNYANWVQEKPDHLFTGLIGGTNNRGPGVPARFSGSLIGDKAALTITGAQTEDEAVYFCALWYSNHWVFGGGTKLTVLG: 0.000138
monoclonal anti-TF antibody TF392 (hybridoma cell line TF392, ATCC PTA-5677) (antibody, IgG1, V domains shown) VH: QVQLKESGAELMKPGASVKISCKATGYTFSSYWIEWVKQRPGHGLEWIGEILPGSGSTNYNEKFKGKATFTADTSSNTAYMQLSSLTSEDSAVYYCARDRNGYVNYFDSWGQGTTLTVSS VL: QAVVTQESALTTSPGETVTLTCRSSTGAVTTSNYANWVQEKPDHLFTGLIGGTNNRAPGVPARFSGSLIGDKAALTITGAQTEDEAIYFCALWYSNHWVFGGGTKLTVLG: 0.00013

Continue with the binder presented below.
Please report koff for the following binder: monoclonal anti-TF antibody TF196 (hybridoma cell line TF196, ATCC PTA-5196) (antibody, V domains shown, Mouse hybridoma IgG) VH: QVQLKQSGPELEKPGASVKISCKASGYSFTGYNMNWVKQSNGKSLEWIGNIDPYYGGTSYNQKFKGKATLTVDKSSNTAYMHLKSLTSEDSAVYYCARDSSSWFAYWGQGTLVTVSA VL: DIQLTQSPASLSASVGETVTITCRASGNIHNYLAWYQQKQGKSPQLLVYNAKTLADGVPSRFSGSGSGTQYSLKINSLQPEDFGSYYCQHFWITPWTFGGGTKLEI
0.00279
